Reference source: patent US20170306031A1

- target.under.test: T1, mouse GFRAL (analyte in Biacore assays) (mouse, UniProt Q6SJE0 20-349, limits assumed)
- T1 construct: injected in solution over captured antibody
- T1 sequence: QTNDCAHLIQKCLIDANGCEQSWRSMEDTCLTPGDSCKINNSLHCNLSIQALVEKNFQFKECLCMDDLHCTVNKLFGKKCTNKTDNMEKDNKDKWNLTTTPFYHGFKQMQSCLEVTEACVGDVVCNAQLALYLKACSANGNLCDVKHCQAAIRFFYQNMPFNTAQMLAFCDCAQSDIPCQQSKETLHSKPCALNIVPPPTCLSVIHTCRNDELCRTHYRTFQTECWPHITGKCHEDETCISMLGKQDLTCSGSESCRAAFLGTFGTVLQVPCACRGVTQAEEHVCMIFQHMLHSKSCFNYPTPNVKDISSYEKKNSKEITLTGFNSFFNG
- test.name: Biacore SPR, antibody captured, GFRAL injected
observable: binding result

INSERT INTO measurements (binder, assay_value) VALUES
  ('antibody designated 6N16 (antibody, V domains shown, mouse hybridoma monoclonal) VH: QVQLQQSGSELVKPGTSMKLSCKASGYTFTSYNINWVRLRPEQGLEWIGWIFPGDDSIKYNENFRGKATLTTDKSSSTAYMHLSRLTSDDSAVYFCARSGIFYGNNFAYWGQGTLVTVSA VL: DVVMTQAPLILSVTIGQPASISCKSSQSLLDGDGETYLSWLLQRPGQSPKRLIYLVSKLDSGVPDRFTGSGSGTDFTLKISRVEAEDLGVYYCCQSTHFPLTFGAGTKLELK', 'no binding'),
  ('antibody designated 1A3 (antibody, V domains shown, mouse hybridoma monoclonal) VH: EVQLQQSGPELVKPGASVKISCKASGFTFTDYYMNWVKQSHGKSLEWIGDIIPNNGVTSYNQKFKGKATLTVDKSSSTAYMELRSLTSEDSAVYYCAREWLLRGMDYWGQGTSVTVSS VL: DIVMTQAAFSNPVTLGTSASISCRSSKSLLHSNGITYLYWYLQKPGQSPQLLIYQMSNLASGVPDRFSSSGSGTDFTLRISRVEAEDVGVYYCAQHLELTWTFGGGTKLEIK', 'no binding'),
  ('antibody designated P1H8 (antibody, V domains shown, mouse hybridoma monoclonal) VH: EVQLQQSGPELVKPGASVKISCKASGYTFTDYYMNWVKQSHGKSLEWIGDINPNNGGTTYNQKFKGKATLTVDKSSSTAYMELRSLTSEDSAVYYCARQGPWYFDVWGTGTTVTVSS VL: DVLMTQTPLSLPVSLGDQASISCRSSQTIVHSNGYTYLEWYLQKPGQSPKLLIYKVSNRFSGVPDRFSGSGSGTDFTLKISRVEAEDLGVYYCFQGSHVPWTFGGGTKLEIK', 'no binding'),
  ('antibody designated 6G9 (antibody, V domains shown, mouse hybridoma monoclonal) VH: QVQLHQPGAELVKPGASVKLSCKTSGYTFTSYWMQWVKQRPGQGLEWIGEIDPSDSYTNYNQKFKGKATLTVDTSSTTAYMQLSSLTSEDSAVYYCARPLDRSAYYFDYWGQGTTLTVSS VL: DIVLTQSPASLAVSLGQRATISCRASESVDFSGNSFMHWYQQKPGQPPKLLIYRASNLDSGIPARFSGVGSRTDFTLTINPVEADDVATYYCQQSNEDPYTFGGGTKLEIE', 'no binding'),
  ('antibody designated P1B6 (antibody, V domains shown, mouse hybridoma monoclonal) VH: EVQLQQSGPELVKPGASVKMSCKASGYTFTDYYMNWVKQTHGKSLEWIGDINPNNGGPIYNQKFKGKATLTVDKSSSTAYMELRSLTSEDSAVYYCARSDSAWFTYWGQGTLVTVSA VL: QIVLTQSPAIMSASPGEKVTMTCSASSSVSYMYWYQQKPGSSPRLLIYDTSNLASGVPVRFSGSGSGTFYSITISRMEAEDAATYYCQQWNSYPPTFGGGTKLEIK', 'no binding'),
  ('antibody designated P8G4 (antibody, V domains shown, mouse hybridoma monoclonal) VH: QVQLKQSGPGLVQPSQSLSITCTVSGFSLTSYGVHWVRQSPGKGLDWLGVLWSGGSTDYNAAFISRLSISKDNSKSQVFFKMNSLQADDTAIYYCARNFGDYWGQGTSVTVSS VL: QIVLTQSPAIMSASPGEKVTMTCSASSRVSYMHWYQQKSGTSPKRWIYDTSKLASGVPARFSGSGSGTSYSLTISSMEAEDAATYYCQQWNNNPPTFGAGTTLELK', 'no binding');
